# System tested: UniProt:P16257
pKi: −log10 of the molar value.
Use yes (1) when the recorded pKi is no lower than 7; use no (0) when it is lower.

Example entries and their recorded answers appear below.
O=C(c1nc(-c2ccc(Cl)cc2)c2ccccc2n1)N1CCCCC1 : no (0)
CC[C@@H](C)N(C)C(=O)c1nc(-c2ccccc2)c2ccccc2n1 : yes (1)
CCCCCCN(CCCCCC)C(=O)c1nc(-c2ccccc2)c2ccccc2n1 : yes (1)
CC(C)CN(C)C(=O)c1nc(-c2ccccc2)c2cc(Cl)ccc2n1 : no (0)
CCCCN(C)C(=O)c1nc(-c2ccccc2)c2ccccc2n1 : yes (1)

Ask: Kindly determine if pKi recorded for CCCCCCN(CCCCCC)C(=O)c1nc(-c2ccccc2Cl)c2cc(Cl)ccc2n1 is above or exactly 7.
Reply: yes (1)

Ask: Kindly determine if pKi recorded for CCC(C)N(C)C(=O)c1nc(-c2ccc(Cl)cc2)c2cc(Cl)ccc2n1 (stereo not drawn) is above or exactly 7.
Reply: no (0)

Ask: Kindly determine if pKi recorded for CCC(C)N(C)C(=O)c1nc(-c2ccc(Cl)cc2)c2ccccc2n1 (stereo not drawn) is above or exactly 7.
Reply: yes (1)

Ask: Kindly determine if pKi recorded for CC[C@H](C)N(C)C(=O)c1nc(-c2ccc(Cl)cc2)c2ccccc2n1 is above or exactly 7.
Reply: yes (1)

Ask: Kindly determine if pKi recorded for CC(C)N(C)C(=O)c1nc(-c2ccccc2Cl)c2ccccc2n1 is above or exactly 7.
Reply: yes (1)

Ask: Kindly determine if pKi recorded for CCC(C)N(C)C(=O)c1nc(-c2ccccc2Cl)c2ccccc2n1 (stereo not drawn) is above or exactly 7.
Reply: yes (1)

Ask: Kindly determine if pKi recorded for O=C(c1nc(-c2ccccc2Cl)c2ccccc2n1)N1CCCCC1 is above or exactly 7.
Reply: yes (1)

Ask: Kindly determine if pKi recorded for CC(C)N(C)C(=O)c1nc(-c2ccc(Cl)cc2)c2ccccc2n1 is above or exactly 7.
Reply: yes (1)

Cited source for all entries: ChEMBL document CHEMBL2057062
